Can you tell me Ki for the items I'm about to list?
Molecular target: Thymidylate kinase (Mycobacterium tuberculosis, UniProt P9WKE1)
Sequence (P9WKE1 whole entry): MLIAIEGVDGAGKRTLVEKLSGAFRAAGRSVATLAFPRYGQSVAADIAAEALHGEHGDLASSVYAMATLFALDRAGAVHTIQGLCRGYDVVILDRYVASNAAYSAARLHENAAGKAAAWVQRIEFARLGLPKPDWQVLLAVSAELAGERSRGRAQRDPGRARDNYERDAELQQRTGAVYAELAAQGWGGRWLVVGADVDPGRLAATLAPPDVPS
One number for each entry, in µM.

These solved cases illustrate the format of a correct answer.
> print(dat)
                              record.smiles                             tested.system  quantitative.result
1  COc1ccc(NC(=S)NC[C@H]2C[C@H](n3cc(C)c(=O)[nH]c3=O)O[C@@H]2CO)cc1  Thymidylate kinase (Mycobacterium tuberculosis, UniProt P9WKE1)                   46
2  Cc1cn([C@@H]2C[C@H](O)[C@@H](CNC(=S)Nc3ccc(Cl)c(C(F)(F)F)c3)O2)c(=O)[nH]c1=O  Thymidylate kinase (Mycobacterium tuberculosis, UniProt P9WKE1)                  0.6
3  Cc1cn([C@@H]2C[C@H](O)[C@@H](CNC(=S)NC(=O)c3ccccc3)O2)c(=O)[nH]c1=O  Thymidylate kinase (Mycobacterium tuberculosis, UniProt P9WKE1)                  7.2

Task: Could you tell me which Ki is on file for "Cc1cn([C@@H]2C[C@H](O)[C@@H](CNC(=S)Nc3ccccc3)O2)c(=O)[nH]c1=O" ?
Result: 16
